test details: Cytotoxicity against human Bel7402 cells after 72 hrs by alamar blue assay
Format: functional, cell-based
condition description: Bel-7402, 72 h
pIC50: −log10 of the molar value.

structure string	pIC50
S=C(NCc1cccnc1)SCCc1nnc(-c2cccs2)o1	5.87
CC(=O)CCSC(=S)NCc1cccnc1	5.46
S=C(NCc1cccnc1)SCCc1nc(-c2ccccc2)no1	5.55
COc1ccc(-c2nnc(CCSC(=S)NCc3cccnc3)o2)cc1	5.81
Cc1cc(-c2nnc(CCSC(=S)NCc3cccnc3)o2)no1	5.77
S=C(NCc1cccnc1)SCCc1nc2ccccc2o1	5.54
O=C(O)CCSC(=S)NCc1cccnc1	5.13

Numbers sourced from ChEMBL document CHEMBL3769316.
